Target System: human MMP-2 (Homo sapiens)
Sequence (P08253 110-660): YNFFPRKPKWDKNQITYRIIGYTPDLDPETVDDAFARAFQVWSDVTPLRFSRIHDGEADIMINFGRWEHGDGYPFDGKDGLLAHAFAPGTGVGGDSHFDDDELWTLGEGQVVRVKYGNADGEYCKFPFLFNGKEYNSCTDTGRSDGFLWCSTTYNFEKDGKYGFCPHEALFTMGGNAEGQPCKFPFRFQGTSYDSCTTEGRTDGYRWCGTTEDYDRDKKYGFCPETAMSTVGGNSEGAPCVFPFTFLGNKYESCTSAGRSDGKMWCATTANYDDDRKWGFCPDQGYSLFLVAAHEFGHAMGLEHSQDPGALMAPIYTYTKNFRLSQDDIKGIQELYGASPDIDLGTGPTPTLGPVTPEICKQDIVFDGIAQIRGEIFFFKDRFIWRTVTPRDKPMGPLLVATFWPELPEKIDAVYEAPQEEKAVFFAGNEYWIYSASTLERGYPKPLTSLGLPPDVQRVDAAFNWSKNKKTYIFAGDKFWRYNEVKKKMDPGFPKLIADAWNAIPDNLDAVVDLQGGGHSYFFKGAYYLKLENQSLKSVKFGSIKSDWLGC
Protocol Text: biochemical
Measurement Context: read-out: koff, MMP-2
Measured koff values are reported for all entries that follow.
Respond numerically; units are s⁻¹ and should not be typed.

# annotated cases, reported koff shown
Answer with the recorded koff for the compound listed here: Nc1ccc(Oc2ccc(S(=O)(=O)CC3CS3)cc2)cc1O (stereo not shown) [Compound 22]
0.00014

Answer with the recorded koff for the compound listed here: NC(CCC(=O)O)C(=O)Nc1ccc(Oc2ccc(S(=O)(=O)CC3CS3)cc2)cc1 (stereo not shown) [Compound 11c]
0.00018

Answer with the recorded koff for the compound listed here: NCCCCC(N)C(=O)Nc1ccc(Oc2ccc(S(=O)(=O)CC3CS3)cc2)cc1 (stereo not shown) [Compound 11b]
0.00021

API: the following record is the query input.
Answer with the recorded koff for the compound listed here: NCC(=O)Nc1ccc(Oc2ccc(S(=O)(=O)CC3CS3)cc2)cc1 (stereo not shown) [Compound 11a]
0.00082
